- Procedure Summary: In Vitro Phospholipidosis Assay (Assay 4), Nile red staining
- Format: cell-based
- Assay Setup: human, first effect concentration, U937 cells, read-out: Phospholipidosis FEC IC50 μM (assay 4)
Assign IC50 at 48 h to each entry below.
Field format: number, assumed µM, no unit text.

Give the reported IC50 at 48 h for this compound. CO[C@H]1[C@H](C)C[C@@]2(Cc3ccc(C#N)cc3[C@]23N=C(N)N(C[C@@H]2CCCO2)C3=O)C[C@@H]1C
200

Output IC50 at 48 h of CO[C@H]1[C@H](C)C[C@@]2(Cc3ccc(C#N)cc3[C@]23N=C(N)N(C2COC2)C3=O)C[C@@H]1C
400

Output IC50 at 48 h of CO[C@H]1[C@H](C)C[C@@]2(Cc3ccc(C#N)cc3[C@]23N=C(N)N(C[C@@H]2COCCO2)C3=O)C[C@@H]1C
400

* * *

- Tested Target: truncated human beta-secretase, BACE1 (amino acids 1-454) (Homo sapiens (Human), UniProt P56817)
- Sequence (P56817 22-454): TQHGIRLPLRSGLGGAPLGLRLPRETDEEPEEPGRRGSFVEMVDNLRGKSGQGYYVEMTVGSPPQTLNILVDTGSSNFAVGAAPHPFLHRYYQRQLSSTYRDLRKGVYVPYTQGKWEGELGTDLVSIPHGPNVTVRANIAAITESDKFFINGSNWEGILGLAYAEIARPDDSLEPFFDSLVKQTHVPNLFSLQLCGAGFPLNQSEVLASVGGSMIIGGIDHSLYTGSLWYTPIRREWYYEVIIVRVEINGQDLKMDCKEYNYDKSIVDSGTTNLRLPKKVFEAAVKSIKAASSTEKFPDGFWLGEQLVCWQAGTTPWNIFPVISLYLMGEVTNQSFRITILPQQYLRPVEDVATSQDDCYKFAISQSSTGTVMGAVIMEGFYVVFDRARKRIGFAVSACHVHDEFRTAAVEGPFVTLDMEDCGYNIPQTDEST
- Procedure Summary: BACE1 Assay (Assay 1), fluorescence quench assay
- Type: biochemical
- Assay Setup: read-out: BACE1 IC50 nM (assay 1)
Measurement Label: IC50 (nM)
Quick note: give the figure in nM, leave out the unit.

# return recorded IC50 for entry CO[C@H]1[C@H](C)C[C@@]2(Cc3ccc(C#N)cc3[C@]23N=C(N)N(CC2(F)CCOCC2)C3=O)C[C@@H]1C
12

Supply IC50 value. Item: CO[C@H]1CC[C@@]2(Cc3ccc(C#N)cc3[C@]23N=C(N)N(CC2COCCO2)C3=O)C[C@@H]1C (stereo partly shown)
6

Annotate the compound CO[C@H]1[C@H](C)C[C@@]2(Cc3ccc(C#N)cc3[C@]23N=C(N)N(Cc2ccncn2)C3=O)C[C@@H]1C with its measured IC50.
5

Please indicate IC50 recorded for CO[C@H]1[C@H](C)C[C@@]2(Cc3ccc(C#N)cc3[C@]23N=C(N)N(Cc2ncc(F)cn2)C3=O)C[C@@H]1C
9

Look up and report measured IC50 for this entry: CC[C@@H]1C[C@@]2(Cc3ccc(C#N)cc3[C@]23N=C(N)N(CC(C)(C)F)C3=O)C[C@H](C)[C@H]1OC
9

Look up and report measured IC50 for this entry: CO[C@H]1[C@H](C)C[C@@]2(Cc3ccc(C#N)cc3[C@]23N=C(N)N(C2COC2)C3=O)C[C@@H]1C
3

// Input: CO[C@H]1CC[C@@]2(Cc3ccc(C#N)cc3[C@]23N=C(N)N(Cc2ccncn2)C3=O)C[C@@H]1C . Output its IC50 only.
9

* * *

- Tested Target: truncated human beta-secretase, BACE1 (amino acids 1-454) (Homo sapiens (Human), UniProt P56817)
- Procedure Summary: BACE1 Assay (Assay 1), fluorescence quench assay
- Assay type: biochemical
- Assay Setup: read-out: BACE1 IC50 nM (assay 1)
IC50 strictly under 6 nM means yes; at 6 nM or over means no.

API: query returns whether the compound falls strictly under 6 nM in IC50. Query: CC[C@@H]1C[C@]2(CC[C@H]1OC)Cc1ccc(C#N)cc1[C@]21N=C(N)N(CC2(F)CCOCC2)C1=O [Example 4]
yes

In plain terms, does COCCN1C(=O)[C@]2(N=C1N)c1cc(C#N)ccc1C[C@@]21CC[C@H](OC)[C@@H](C)C1 [Example 7] come in under 6 nM for IC50?
yes

Please check: IC50 for CC[C@@H]1C[C@]2(CC[C@H]1OC)Cc1ccc(C#N)cc1[C@]21N=C(N)N(CC2CCOCC2)C1=O [Example 2] , strictly under 6 nM or not?
no

Report whether reported IC50 is lower than 6 nM (strictly) for CO[C@H]1[C@H](C)C[C@@]2(Cc3ccc(C#N)cc3[C@]23N=C(N)N(CC2CCOCC2)C3=O)C[C@@H]1C [Example 16]
no

Hello, I'm reviewing records and need to know if IC50 of CO[C@H]1[C@H](C)C[C@@]2(Cc3ccc(C#N)cc3[C@]23N=C(N)N(C[C@H]2COCCO2)C3=O)C[C@@H]1C [Example 22] is below 6 nM. Could you check?
no

hey, is IC50 for CO[C@H]1[C@H](C)C[C@@]2(Cc3ccc(C#N)cc3[C@]23N=C(N)N(C[C@@H]2COCCO2)C3=O)C[C@@H]1C [Example 21] lower than 6 nM or not?
yes

* * *

- Procedure Summary: In Vitro Phospholipidosis Assay (Assay 4), Nile red staining
- Type: cell-based
- Assay Setup: human, first effect concentration, U937 cells, read-out: Phospholipidosis FEC IC50 μM (assay 4)
Exercise: for every item that follows, state its recorded IC50 at 48 h.
Numeric answer only, unit µM assumed.

Provide measured IC50 at 48 h value, entry: CC[C@@H]1C[C@]2(CC[C@H]1OC)Cc1ccc(C#N)cc1[C@]21N=C(N)N(C[C@H]2COCCO2)C1=O
400

Provide measured IC50 at 48 h value, entry: CO[C@H]1[C@H](C)C[C@@]2(Cc3ccc(C#N)cc3[C@]23N=C(N)N(CCC2COC2)C3=O)C[C@@H]1C
400

Provide IC50 at 48 h value for the following compound: CO[C@H]1[C@H](C)C[C@@]2(Cc3ccc(C#N)cc3[C@]23N=C(N)N(CC2CCOCC2)C3=O)C[C@@H]1C
200

Supply measured IC50 at 48 h of COCCN1C(=O)[C@]2(N=C1N)c1cc(C#N)ccc1C[C@@]21CC[C@H](OC)[C@@H](C)C1 in your reply.
400

* * *

- Tested Target: hERG (Homo sapiens (Human))
- Procedure Summary: hERG-Channel Assay (Assay 3), whole-cell patch clamp
- Type: cell-based
- Assay Setup: human, HEK293 cells stably transfected with hERG, pH 7.4; 10 μM, HEK293 cells transfected with hERG
Measurement Label: inhibition at 10 µM (%)
Please reply with the bare figure in % and do not write the unit itself.

Tell us which inhibition at 10 µM value is on record for CC[C@@H]1C[C@]2(CC[C@H]1OC)Cc1ccc(C#N)cc1[C@]21N=C(N)N(Cc2ncccn2)C1=O
8

Write down inhibition at 10 µM measured for item CO[C@H]1[C@H](C)C[C@@]2(Cc3ccc(C#N)cc3[C@]23N=C(N)N(C[C@@H]2COCCO2)C3=O)C[C@@H]1C
24

Return value of inhibition at 10 µM for input CO[C@H]1CC[C@@]2(Cc3ccc(C#N)cc3[C@]23N=C(N)N(Cc2ccncn2)C3=O)C[C@@H]1C , no commentary.
16

Check the records and state inhibition at 10 µM for CO[C@H]1[C@H](C)C[C@@]2(Cc3ccc(F)cc3[C@]23N=C(N)N(CC2(C)OCCO2)C3=O)C[C@@H]1C
7

Supply recorded inhibition at 10 µM for CO[C@H]1[C@H](C)C[C@@]2(Cc3ccc(C#N)cc3[C@]23N=C(N)N(C[C@@H]2CCO2)C3=O)C[C@@H]1C (stereo in doubt) here.
17

State its inhibition at 10 µM: CO[C@H]1[C@H](C)C[C@@]2(Cc3ccc(C#N)cc3[C@]23N=C(N)N(CC2(F)CCOCC2)C3=O)C[C@@H]1C
16

* * *

Provide the reported inhibition at 10 µM of each item.
- Tested Target: hERG (Homo sapiens (Human), UniProt Q12809)
- Sequence (Q12809 whole entry): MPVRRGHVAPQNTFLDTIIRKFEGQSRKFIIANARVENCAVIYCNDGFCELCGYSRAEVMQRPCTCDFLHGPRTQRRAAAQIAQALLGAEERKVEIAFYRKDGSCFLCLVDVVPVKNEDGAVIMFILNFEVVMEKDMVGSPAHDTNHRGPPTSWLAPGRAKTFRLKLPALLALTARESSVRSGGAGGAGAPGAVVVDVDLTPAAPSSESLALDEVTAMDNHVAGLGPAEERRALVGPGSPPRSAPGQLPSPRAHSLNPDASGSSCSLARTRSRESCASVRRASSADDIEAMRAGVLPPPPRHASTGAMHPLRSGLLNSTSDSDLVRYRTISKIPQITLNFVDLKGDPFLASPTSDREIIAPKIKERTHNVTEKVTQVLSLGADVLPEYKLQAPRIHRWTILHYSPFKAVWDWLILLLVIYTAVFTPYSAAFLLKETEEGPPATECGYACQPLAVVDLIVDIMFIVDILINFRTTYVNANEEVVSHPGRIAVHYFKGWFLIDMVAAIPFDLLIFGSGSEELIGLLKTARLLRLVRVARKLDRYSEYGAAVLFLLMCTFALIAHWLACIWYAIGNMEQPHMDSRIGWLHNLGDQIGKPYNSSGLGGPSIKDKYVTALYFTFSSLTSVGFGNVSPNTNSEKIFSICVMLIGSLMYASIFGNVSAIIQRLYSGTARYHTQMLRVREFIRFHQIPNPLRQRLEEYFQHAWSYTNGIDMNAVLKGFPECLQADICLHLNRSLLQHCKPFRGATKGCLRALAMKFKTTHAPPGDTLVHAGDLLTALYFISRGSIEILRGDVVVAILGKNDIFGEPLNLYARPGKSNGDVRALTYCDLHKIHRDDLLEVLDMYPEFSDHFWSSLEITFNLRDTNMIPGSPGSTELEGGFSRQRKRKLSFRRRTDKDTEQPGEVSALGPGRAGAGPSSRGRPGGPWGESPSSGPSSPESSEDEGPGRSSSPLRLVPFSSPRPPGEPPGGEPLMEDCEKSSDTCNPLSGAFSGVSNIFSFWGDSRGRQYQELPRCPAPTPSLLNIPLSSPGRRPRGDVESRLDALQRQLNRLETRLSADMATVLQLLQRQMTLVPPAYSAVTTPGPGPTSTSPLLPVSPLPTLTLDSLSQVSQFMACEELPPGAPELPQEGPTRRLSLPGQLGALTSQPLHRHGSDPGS
- Procedure Summary: hERG-Channel Assay (Assay 3), whole-cell patch clamp
- Assay type: cell-based
- Assay Setup: human, HEK293 cells stably transfected with hERG, pH 7.4; 10 μM, HEK293 cells transfected with hERG

Please report the measured inhibition at 10 µM for COCCN1C(=O)[C@]2(N=C1N)c1cc(C#N)ccc1C[C@@]21CC[C@H](OC)[C@@H](C)C1
8%

Give inhibition at 10 µM for the following molecule: CO[C@H]1[C@H](C)C[C@@]2(Cc3ccc(C#N)cc3[C@]23N=C(N)N(C[C@H]2CCCO2)C3=O)C[C@@H]1C
20%

Note inhibition at 10 µM for the molecule shown: CO[C@H]1[C@H](C)C[C@@]2(Cc3ccc(C#N)cc3[C@]23N=C(N)N(CC(C)(C)F)C3=O)C[C@@H]1C
12%

Input CC[C@@H]1C[C@]2(CC[C@H]1OC)Cc1ccc(C#N)cc1[C@]21N=C(N)N(CC2(F)CCOCC2)C1=O , output reported inhibition at 10 µM.
0%

Provide one value: measured inhibition at 10 µM of CO[C@H]1[C@H](C)C[C@@]2(Cc3ccc(C#N)cc3[C@]23N=C(N)N(CC2(C)COC2)C3=O)C[C@@H]1C
6%

* * *

Assignment: determine reported inhibition at 10 µM for the given molecules.
- Tested Target: UniProt Q12809
- Procedure Summary: hERG-Channel Assay (Assay 3), whole-cell patch clamp
- Format: cell-based
- Assay Setup: human, HEK293 cells stably transfected with hERG, pH 7.4; 10 μM, HEK293 cells transfected with hERG
Note: unit % is implicit; provide only the numeric part.

Supply inhibition at 10 µM value. Item: CC[C@@H]1C[C@]2(CC[C@H]1OC)Cc1ccc(C#N)cc1[C@]21N=C(N)N(C[C@H]2COCCO2)C1=O
9

Return the recorded inhibition at 10 µM value; entry: CC[C@H]1C[C@@]2(CC[C@@H]1OC)Cc1ccc(C#N)cc1[C@]21N=C(N)N(C[C@H]2CCCO2)C1=O
7

State, in one line, measured inhibition at 10 µM of CO[C@H]1[C@H](C)C[C@@]2(Cc3ccc(C#N)cc3[C@]23N=C(N)N(Cc2ccncn2)C3=O)C[C@@H]1C
23

Retrieve inhibition at 10 µM measured for CO[C@H]1CC[C@@]2(Cc3ccc(C#N)cc3[C@]23N=C(N)N(CC2COCCO2)C3=O)C[C@@H]1C (stereo partly shown) and print it.
19

Attribution: patent US8981112B2
